The reported measurements were obtained from paper PMC9172550.

- target_under_test: PPARγ LBD protein (Homo sapiens, UniProt P37231)
- Construct: 1 nM 6xHis-PPAR LBD protein
- Sequence (P37231 238-503 limits assumed): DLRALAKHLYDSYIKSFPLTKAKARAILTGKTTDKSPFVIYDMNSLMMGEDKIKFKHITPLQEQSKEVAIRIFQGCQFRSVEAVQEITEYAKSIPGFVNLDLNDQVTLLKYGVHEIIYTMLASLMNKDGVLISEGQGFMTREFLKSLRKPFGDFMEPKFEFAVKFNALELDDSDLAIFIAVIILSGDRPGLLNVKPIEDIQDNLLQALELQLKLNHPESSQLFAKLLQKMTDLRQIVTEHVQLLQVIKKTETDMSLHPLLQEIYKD
- protocol_notes: LanthaScreen TR-FRET competitive ligand displacement (PPARγ protein binding) assay
- condition_details: TR-FRET signal at 0.0064 µM
measured_metric: Raw Data - Background (RLU)
Quick reminder: number only, in RLU, skip the unit.

Reference set (3 entries):
C=CCc1ccc(OCC(=O)Nc2ccc(Cl)cc2)c(OC)c1 [Compound 1C]
1.699
C=CCc1ccc(OCC(=O)Nc2cccc(C)c2)c(OC)c1 [Compound 1D]
1.83
C=CCc1ccc(OCC(=O)Nc2ccc(C)cc2)c(OC)c1 [Compound 1A]
1.688

Prompt: Report measured Raw Data - Background (RLU) on PPARγ LBD protein (Homo sapiens, UniProt P37231); entry: C=CCc1ccc(OCC(=O)Nc2ccc(OC)cc2)c(OC)c1 [Compound 1B]
Response: 1.678
